These entries and their values trace back to patent US11332459B2.

Entries and their pIC50
# Assayed Target: human TRPC6 (Homo sapiens)
# Sequence (Q9Y210 1-931): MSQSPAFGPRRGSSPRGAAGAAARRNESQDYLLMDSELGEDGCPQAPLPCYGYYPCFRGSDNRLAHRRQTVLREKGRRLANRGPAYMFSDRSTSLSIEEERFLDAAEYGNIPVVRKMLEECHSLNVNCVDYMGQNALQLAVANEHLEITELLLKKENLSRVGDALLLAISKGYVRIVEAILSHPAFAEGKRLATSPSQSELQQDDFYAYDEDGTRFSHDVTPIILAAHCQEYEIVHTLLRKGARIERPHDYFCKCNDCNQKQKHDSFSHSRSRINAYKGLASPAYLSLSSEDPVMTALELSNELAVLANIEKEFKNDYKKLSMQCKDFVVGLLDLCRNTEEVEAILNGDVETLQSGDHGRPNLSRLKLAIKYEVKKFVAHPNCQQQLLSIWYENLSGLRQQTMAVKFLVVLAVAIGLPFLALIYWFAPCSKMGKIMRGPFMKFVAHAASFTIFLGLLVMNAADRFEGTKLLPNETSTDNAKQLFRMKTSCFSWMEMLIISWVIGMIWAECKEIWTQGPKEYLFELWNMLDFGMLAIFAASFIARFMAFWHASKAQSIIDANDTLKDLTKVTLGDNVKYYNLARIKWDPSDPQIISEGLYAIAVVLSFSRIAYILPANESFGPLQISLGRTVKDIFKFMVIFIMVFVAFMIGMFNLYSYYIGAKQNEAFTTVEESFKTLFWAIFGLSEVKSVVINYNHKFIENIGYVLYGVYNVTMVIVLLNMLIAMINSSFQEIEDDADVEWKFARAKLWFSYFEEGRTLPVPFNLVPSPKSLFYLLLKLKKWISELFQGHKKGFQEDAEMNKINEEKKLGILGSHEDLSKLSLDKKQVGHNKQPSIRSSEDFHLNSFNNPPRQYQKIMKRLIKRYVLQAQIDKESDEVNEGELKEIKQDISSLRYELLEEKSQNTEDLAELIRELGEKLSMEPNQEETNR
# Protocol Details: TRPC6 calcium flux assay (FLIPR, OAG-stimulated calcium influx)
# Recorded Conditions: HEK293 cells stably transfected with human TRPC6, read-out: hTRPC6 Potency
Where a name gives a salt, the structure may show the parent alone.
Lab note — pIC50 values are minus log10 of concentrations in M.

Please review the entries below; each comes with its answer.
Compound	Assayed Target	Recorded Number
N[C@@H]1CCCN(c2nc3ccccc3n2Cc2ccc(Cl)cc2)C1	human TRPC6 (Homo sapiens)	5.78
N[C@@H]1CN(c2nc3cc(F)c(F)cc3n2Cc2ccc(F)cn2)CC[C@@H]1F	human TRPC6 (Homo sapiens)	7.28
N#Cc1ccc(Cn2c(N3CCC[C@H](N)C3)nc3cc(F)ccc32)nc1 [Example 46, hydrochloride]	human TRPC6 (Homo sapiens)	8.75

Answer with the recorded pIC50 of Cc1cccc2c1nc(N1CC[C@@H](F)[C@H](N)C1)n2Cc1ccc(C#N)cn1 only.
8.25

----------
# Assayed Target: human TRPC6 (Homo sapiens)
# Sequence (Q9Y210 1-931): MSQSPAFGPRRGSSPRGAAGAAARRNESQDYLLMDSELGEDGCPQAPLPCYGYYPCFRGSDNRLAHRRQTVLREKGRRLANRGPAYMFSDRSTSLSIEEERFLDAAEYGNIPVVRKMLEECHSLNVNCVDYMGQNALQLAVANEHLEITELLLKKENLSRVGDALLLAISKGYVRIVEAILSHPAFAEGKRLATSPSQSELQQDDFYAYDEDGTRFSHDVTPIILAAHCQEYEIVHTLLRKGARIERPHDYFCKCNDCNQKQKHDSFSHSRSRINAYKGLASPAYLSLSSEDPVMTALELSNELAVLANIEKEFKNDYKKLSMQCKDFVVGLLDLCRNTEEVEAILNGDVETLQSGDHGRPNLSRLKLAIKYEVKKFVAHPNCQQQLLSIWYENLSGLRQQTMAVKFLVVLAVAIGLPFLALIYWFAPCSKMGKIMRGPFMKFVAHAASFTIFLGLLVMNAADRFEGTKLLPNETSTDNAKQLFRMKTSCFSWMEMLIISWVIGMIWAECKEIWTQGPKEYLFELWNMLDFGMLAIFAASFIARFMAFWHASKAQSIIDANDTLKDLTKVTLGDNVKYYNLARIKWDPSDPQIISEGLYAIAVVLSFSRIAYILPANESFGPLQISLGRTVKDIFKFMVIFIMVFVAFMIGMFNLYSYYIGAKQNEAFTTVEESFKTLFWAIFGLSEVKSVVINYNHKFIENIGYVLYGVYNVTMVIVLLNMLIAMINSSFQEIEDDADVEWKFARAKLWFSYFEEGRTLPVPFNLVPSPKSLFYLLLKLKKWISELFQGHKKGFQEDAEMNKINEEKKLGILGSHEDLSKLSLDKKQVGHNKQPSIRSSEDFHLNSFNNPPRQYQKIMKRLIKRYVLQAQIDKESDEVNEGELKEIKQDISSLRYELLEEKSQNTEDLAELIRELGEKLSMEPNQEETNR
# Protocol Details: TRPC6 calcium flux assay (FLIPR, OAG-stimulated calcium influx)
# Recorded Conditions: HEK293 cells stably transfected with human TRPC6, read-out: hTRPC6 Potency
Where a name gives a salt, the structure may show the parent alone.
Please use Criterion met for IC50 under 100 nM and Criterion not met for everything else, ties included.

Compound	Assigned Category
N#Cc1ccc(Cn2c(N3C[C@H]4CC[C@@H](N)[C@H]4C3)nc3ccccc32)nc1 [Example 76, hydrochloride]	Criterion not met

Hi there! Is IC50 for COc1ccc2c(c1)nc(N1CCC[C@@H](N)C1)n2Cc1ccc(C#N)cc1 below 100 nM, do you know?
Criterion not met

Hi there! Is IC50 for CC(c1ccccn1)N(C)C(=O)Cn1c(N2CC[C@@H](F)[C@H](N)C2)nc2cc(F)c(F)cc21 (stereo partly shown) [Example 638] below 100 nM, do you know?
Criterion not met

Hi there! Is IC50 for N#CC1CN(C(=O)Cn2c(N3CC[C@@H](F)[C@H](N)C3)nc3cc(F)c(F)cc32)CCO1 (mixture of isomers) below 100 nM, do you know?
Criterion not met

Hi there! Is IC50 for CS(=O)(=O)c1ccc(Cn2c(N3CC[C@@H](F)[C@H](N)C3)nc3cc(F)cc(F)c32)nc1 below 100 nM, do you know?
Criterion not met

Hi there! Is IC50 for N[C@@H]1CCCN(c2nc3ccccc3n2Cc2cccc(Cl)c2)C1 below 100 nM, do you know?
Criterion not met
